test: Cytotoxicity in PBM cells; assay type: cell-based; conditions: human, peripheral blood mononuclear (PBM) cells, read-out: HIV-1 in PBM cells CC50
MEASURED ENDPOINT: CC50

1) Cc1cccc(C)c1OCC(=O)N[C@@H](Cc1ccccc1)[C@@H](O)C[C@H](Cc1ccccc1)NC(=O)[C@H](C(C)C)N1CCCNC1=O 36 µM
2) Nc1nc(N)c2ncn([C@H]3CO[C@@H](CO)O3)c2n1 > 100 µM
3) Nc1ccn([C@H]2CC[C@@H](CO)O2)c(=O)n1 > 100 µM
